# testDetails: NCI Yeast Anticancer Drug Screen. Data for the bub3 strain (AID 167)
# condition: S. cerevisiae bub3 mutant strain, at 50.0 µM, stronger effect = higher value
This is part of a sample that, as a whole, favours compounds with a hit. Of some 79,000 tested, about 15% had one in any assay.
Measured growth inhibition accompanies every entry in the list below.
Field format: number, assumed %, no unit text.

Field: example entries. Status: answers known.
Reported growth inhibition for O=C(O)CC1CCCc2ccccc2C1CC(=O)O (stereo not drawn) : what is it?
6.85

What growth inhibition value was documented for this molecule, S=C(N1CCN(c2ccc(Cl)c(Cl)c2)CC1)N1CCN(c2ccc(Cl)c(Cl)c2)CC1 ?
5.55

Consider the molecule CC(C)=CCNc1ccccc1 and give its measured growth inhibition.
1.05

Reported growth inhibition for Clc1ccc(-n2cccc2)cc1 : what is it?
-19.6

Next:
Item Nc1nc2scnc2c(=O)[nH]1 has what recorded growth inhibition?
-8.5

Which growth inhibition is listed for O=C1CCCC(=S)N1 ?
14.3

What value of growth inhibition has been recorded for this entry: CC(C)OC(=O)Nc1cccc(NC(=O)OCCCl)c1
-8.8

Give the measured growth inhibition of CC(COc1ccccc1)N(CCCl)Cc1ccccc1 (stereo not drawn) .
38

Would you mind telling me what growth inhibition value was observed for Cc1ccc(S(=O)(=O)SCC(=O)c2ccc(Br)cc2)cc1 ?
4.35

Need growth inhibition, item O=C1c2ccccc2C(=O)N1[C@@H](Cc1ccccc1)C(=O)n1cccc1CO
28.9

Data credit: PubChem BioAssay (NCI)
